Biological target: T1, c-erbB-2 ECD with a Ser-Gly-His6 C-terminal fusion (UniProt P04626 23-652)
T1 construct: extracellular domain; Expressed from CHO cells, IMAC purified; coupled to a CM5 chip, coated on plates, or biotinylated with NHS-LC-biotin; also called c-erbB-2 extracellular domain; biotinylated c-erbB-2 ECD
Assay: SPR BIAcore
Given measured kon, output fulfilled if it is greater than or equal to 600000 M⁻¹ s⁻¹ and not fulfilled if not.

BINDER	ANSWER_LABEL
C6-B47D5 (scFv, Combined B47 and D5 mutations on C6ML3-9) scFv: QVQLLQSGAELKKPGESLKISCKGSGYSFTSYWIAWVRQMPGKGLEYMGLIYPGDSDTKYSPSFQGQVTISVDKSVSTAYLQWSSLKPSDSAVYFCARHDVGYCTDRSCAKWPEWMQMWGQGTLVTVSSGGGGSGGGGSGGGGSQSVLTQPPSVSAAPGQKVTISCSGSSSNIGNNYVSWYQQLPGTAPKLLIYGHTNRPAGVPDRFSGSKSGTSASLAISGFRSEDEADYYCASWDYTLSGWVFGGGTKLTVLG	fulfilled
C6-B1D6 (scFv, Combined B1 and D6 mutations on C6ML3-9) scFv: QVQLLQSGAELKKPGESLKISCKGSGYSFTSYWIAWVRQMPGKGLEYMGLIYPGDSDTKYSPSFQGQVTISVDKSVSTAYLQWSSLKPSDSAVYFCARHDVGYCTDRTCAKWPEWMYPWGQGTLVTVSSGGGGSGGGGSGGGGSQSVLTQPPSVSAAPGQKVTISCSGSSSNIGNNYVSWYQQLPGTAPKLLIYGHTNRPAGVPDRFSGSKSGTSASLAISGFRSEDEADYYCASWDYTLSGWVFGGGTKLTVLG	not fulfilled
C6-B1D5 (scFv, Combined B1 and D5 mutations on C6ML3-9) scFv: QVQLLQSGAELKKPGESLKISCKGSGYSFTSYWIAWVRQMPGKGLEYMGLIYPGDSDTKYSPSFQGQVTISVDKSVSTAYLQWSSLKPSDSAVYFCARHDVGYCTDRTCAKWPEWMQMWGQGTLVTVSSGGGGSGGGGSGGGGSQSVLTQPPSVSAAPGQKVTISCSGSSSNIGNNYVSWYQQLPGTAPKLLIYGHTNRPAGVPDRFSGSKSGTSASLAISGFRSEDEADYYCASWDYTLSGWVFGGGTKLTVLG	not fulfilled
C6-B47D2 (scFv, Combined B47 and D2 mutations on C6ML3-9) scFv: QVQLLQSGAELKKPGESLKISCKGSGYSFTSYWIAWVRQMPGKGLEYMGLIYPGDSDTKYSPSFQGQVTISVDKSVSTAYLQWSSLKPSDSAVYFCARHDVGYCTDRSCAKWPEWLGVWGQGTLVTVSSGGGGSGGGGSGGGGSQSVLTQPPSVSAAPGQKVTISCSGSSSNIGNNYVSWYQQLPGTAPKLLIYGHTNRPAGVPDRFSGSKSGTSASLAISGFRSEDEADYYCASWDYTLSGWVFGGGTKLTVLG	fulfilled
C6-B1D2 (scFv, Combined B1 and D2 mutations on C6ML3-9) scFv: QVQLLQSGAELKKPGESLKISCKGSGYSFTSYWIAWVRQMPGKGLEYMGLIYPGDSDTKYSPSFQGQVTISVDKSVSTAYLQWSSLKPSDSAVYFCARHDVGYCTDRTCAKWPEWLGVWGQGTLVTVSSGGGGSGGGGSGGGGSQSVLTQPPSVSAAPGQKVTISCSGSSSNIGNNYVSWYQQLPGTAPKLLIYGHTNRPAGVPDRFSGSKSGTSASLAISGFRSEDEADYYCASWDYTLSGWVFGGGTKLTVLG	fulfilled

Qu. Please check the record C6-B1D1 (scFv, Combined B and D library mutations on C6ML3-9) scFv: QVQLLQSGAELKKPGESLKISCKGSGYSFTSYWIAWVRQMPGKGLEYMGLIYPGDSDTKYSPSFQGQVTISVDKSVSTAYLQWSSLKPSDSAVYFCARHDVGYCTDRTCAKWPEWLHVWGQGTLVTVSSGGGGSGGGGSGGGGSQSVLTQPPSVSAAPGQKVTISCSGSSSNIGNNYVSWYQQLPGTAPKLLIYGHTNRPAGVPDRFSGSKSGTSASLAISGFRSEDEADYYCASWDYTLSGWVFGGGTKLTVLG and state if its kon is at or above 600000 M⁻¹ s⁻¹.
Ans. not fulfilled

Qu. Please check the record C6-B47D1 (scFv, Combined B47 and D1 mutations on C6ML3-9) scFv: QVQLLQSGAELKKPGESLKISCKGSGYSFTSYWIAWVRQMPGKGLEYMGLIYPGDSDTKYSPSFQGQVTISVDKSVSTAYLQWSSLKPSDSAVYFCARHDVGYCTDRSCAKWPEWLHVWGQGTLVTVSSGGGGSGGGGSGGGGSQSVLTQPPSVSAAPGQKVTISCSGSSSNIGNNYVSWYQQLPGTAPKLLIYGHTNRPAGVPDRFSGSKSGTSASLAISGFRSEDEADYYCASWDYTLSGWVFGGGTKLTVLG and state if its kon is at or above 600000 M⁻¹ s⁻¹.
Ans. fulfilled

Qu. Please check the record C6-12L1 (scFv, C6L1 with the VL CDR3 of C6ML3-12) scFv: QVQLLQSGAELKKPGESLKISCKGSGYSFTSYWIAWVRQMPGKGLEYMGLIYPGDSDTKYSPSFQGQVTISVDKSVSTAYLQWSSLKPSDSAVYFCARHDVGYCSSSNCAKWPEYFQHWGQGTLVTVSSGGGGSGGGGSGGGGSQSVLTQPPSVSGAPGQWVTISCSGSSSNIGNNYVSWYQQLPGTAPKLLIYDNNKRPSGVPDRFSGSQSGTSASLAISGLRSEDEADYYCAAWDYSRSGWVFGGGTKLTVLG and state if its kon is at or above 600000 M⁻¹ s⁻¹.
Ans. fulfilled
